Target: T1, human ST2L (human, UniProt Q01638 19-328, limits assumed)
T1 construct: also called IL-1R4; IL-33Ra
T1 sequence (looked up): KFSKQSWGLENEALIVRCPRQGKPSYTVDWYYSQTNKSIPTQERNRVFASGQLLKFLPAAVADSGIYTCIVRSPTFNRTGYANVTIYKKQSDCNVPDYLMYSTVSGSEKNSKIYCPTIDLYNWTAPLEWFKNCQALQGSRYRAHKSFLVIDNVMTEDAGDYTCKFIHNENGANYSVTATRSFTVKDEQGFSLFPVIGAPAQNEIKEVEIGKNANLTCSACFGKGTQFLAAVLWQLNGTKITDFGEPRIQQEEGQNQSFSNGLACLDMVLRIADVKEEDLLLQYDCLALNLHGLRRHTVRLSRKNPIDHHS
Experiment: affinity table; method not stated
Each entry belongs to exactly one class, chosen by where its Kd falls: interval 1 (below 20 pM), interval 2 (20 pM to below 30 pM), interval 3 (30 pM or more)

Observe how each entry below is paired with its result.
STLM208 (antibody, V domains shown) VH: EVQLLESGGGLVQPGGSLRLSCAASGFTFSIYDMIWVRQAPGKGLEWVSSIRGEGGGTYYADSVKGRFTISRDNSKNTLYLQMNSLRAEDTAVYYCARDPWSTEGSFFVLDYWGQGTLVTVSS VL: EIVLTQSPATLSLSPGERATLSCRASQSVDDDLAWYQQKPGQAPRLLIYDASNRATGIPARFSGSGSGTDFTLTISSLEPEDFAVYYCQQYITAPLTFGQGTKVEIK    interval 1
STLM221 (antibody, from another filing, V domains shown) VH: EVQLLESGGGLVQPGGSLRLSCAASGFTFSIYDMFWVRQAPGKGLEWVSYIRGEGGDTNYADSVKGRFTISRDNSKNTLYLQMNSLRAEDTAVYYCARDPWSTEGSFFVLDYWGQGTLVTVSS VL: EIVLTQSPATLSLSPGERATLSCRASQSVDDDLAWYQQKPGQAPRLLIYDASNRATGIPARFSGSGSGTDFTLTISSLEPEDFAVYYCQQYIGAPITFGQGTKVEIK    interval 3
STLM217 (antibody, from another filing, V domains shown) VH: EVQLLESGGGLVQPGGSLRLSCAASGFTFSVYDMFWVRQAPGKGLEWVSDIKGEGGETSYADSVKGRFTISRDNSKNTLYLQMNSLRAEDTAVYYCARDPWSTEGSFFVLDYWGQGTLVTVSS VL: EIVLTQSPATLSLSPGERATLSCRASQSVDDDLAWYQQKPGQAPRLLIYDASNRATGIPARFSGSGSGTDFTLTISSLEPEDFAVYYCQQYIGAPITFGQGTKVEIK    interval 1
STLM123 (antibody, from another filing, V domains shown) VH: EVQLLESGGGLVQPGGSLRLSCAASGFTFSDYAMFWVRQAPGKGLEWVSAIEGEGGETNYADSVKGRFTISRDNSKNTLYLQMNSLRAEDTAVYYCARDPWSTEGSFFVLDYWGQGTLVTVSS VL: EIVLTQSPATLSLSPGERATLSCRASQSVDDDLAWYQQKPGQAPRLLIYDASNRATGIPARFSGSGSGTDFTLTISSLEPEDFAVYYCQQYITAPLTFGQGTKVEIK    interval 1
STLM211 (antibody, from another filing, V domains shown) VH: EVQLLESGGGLVQPGGSLRLSCAASGFTFSGYAMIWVRQAPGKGLEWVSYIEGEGGETYYADSVKGRFTISRDNSKNTLYLQMNSLRAEDTAVYYCARDPWSTEGSFFVLDYWGQGTLVTVSS VL: EIVLTQSPATLSLSPGERATLSCRASQSVDDDLAWYQQKPGQAPRLLIYDASNRATGIPARFSGSGSGTDFTLTISSLEPEDFAVYYCQQYNDAITFGQGTKVEIK    interval 2

**Q:** Where would STLM210 (antibody, from another filing, V domains shown) VH: EVQLLESGGGLVQPGGSLRLSCAASGFTFSDDAMIWVRQAPGKGLEWVSYIGGNGGTTYYADSVKGRFTISRDNSKNTLYLQMNSLRAEDTAVYYCARDPWSTEGSFFVLDYWGQGTLVTVSS VL: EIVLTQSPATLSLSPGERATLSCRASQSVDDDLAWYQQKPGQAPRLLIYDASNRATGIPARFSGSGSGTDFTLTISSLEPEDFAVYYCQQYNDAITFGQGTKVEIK land among the classes by reported Kd?
**A:** interval 1

**Q:** Given STLM226 (antibody, from another filing, V domains shown) VH: EVQLVQSGAEVKKPGATVKISCKVSAFNIKDDYMHWVQQAPGKGLEWMGRIDPAIGNTEYAEKFQGRVTITADTSTDTAYMELSSLRSEDTAVYYCATGDFYAMAYWGQGTLVTVSS VL: DIQMTQSPSSLSASVGDRVTITCITNTDIDDVIHWYQQKPGKAPKLLIYEGNTLRPGVPSRFSGSGSGTDFTLTISSLQPEDFATYYCLQSDNLLTFGQGTKLEIK , name the class its Kd places it in.
**A:** interval 3

**Q:** Input STLM220 (antibody, from another filing, V domains shown) VH: EVQLLESGGGLVQPGGSLRLSCAASGFTFSFYDMFWVRQAPGKGLEWVSDIRGEGGGTAYADSVKGRFTISRDNSKNTLYLQMNSLRAEDTAVYYCARDPWSTEGSFFVLDYWGQGTLVTVSS VL: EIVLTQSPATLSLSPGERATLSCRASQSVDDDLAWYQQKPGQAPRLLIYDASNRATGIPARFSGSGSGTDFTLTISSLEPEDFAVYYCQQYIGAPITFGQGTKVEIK ; output its category
**A:** interval 1

**Q:** Hello team, could you let me know which band the following binder falls into: STLM103 (antibody, from another filing, V domains shown) VH: EVQLLESGGGLVQPGGSLRLSCAASGFTFSFYDMFWVRQAPGKGLEWVSSIRGEGGRTDYADSVKGRFTISRDNSKNTLYLQMNSLRAEDTAVYYCARDPWSTEGSFFVLDYWGQGTLVTVSS VL: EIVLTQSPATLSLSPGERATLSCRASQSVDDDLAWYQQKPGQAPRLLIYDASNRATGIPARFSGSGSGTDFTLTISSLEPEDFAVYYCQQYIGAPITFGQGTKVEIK
**A:** interval 3

**Q:** Which category does the recorded Kd put STLM232 (antibody, from another filing, V domains shown) VH: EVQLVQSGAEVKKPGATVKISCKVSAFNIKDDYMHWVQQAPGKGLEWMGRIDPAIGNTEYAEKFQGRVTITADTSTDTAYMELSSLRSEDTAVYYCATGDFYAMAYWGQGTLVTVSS VL: DIQMTQSPSSLSASVGDRVTITCITNTDIDDVIHWYQQKPGKAPKLLIYEGNTLRPGVPSRFSGSGSGTDFTFTISSLQPEDIATYYCLQSDNMLTFGQGTKLEIK in?
**A:** interval 2
